Experiment: qHTS of pediatric cancer cell lines to identify multiple opportunities for drug repurposing: Primary screen for A673 cells (AID 1347092); further: nearly all actives have a fitted effect of over 45% in size
Conditions: A673 Ewing sarcoma viability, CellTiter-Glo ATP luminescence, 48 h; series mostly up to 46 µM
Records with an inconclusive call do not appear. The source made the active and inactive calls. The call rests on the fitted dose curve; in most records, active means well fitted cell-killing curve with a large enough effect; inconclusive means small, poorly fitted or top-dose-only effect; inactive means no such curve, though single readings can be large or run the other way.
Labels: 1 (yes) for active, 0 (no) for inactive

chemical.string	assigned.class
Oc1cc(-c2nc(-c3ccccc3)[nH]c2-c2ccncc2)ccc1Cl	1 (yes)
FC(F)(F)c1ccc(Nc2nc3ccc(Oc4ccnc(-c5ncc(C(F)(F)F)[nH]5)c4)cc3[nH]2)cc1	1 (yes)
CCc1cc(C(C)=NOCc2ccc(C3CCCCC3)c(C(F)(F)F)c2)ccc1CN1CC(C(=O)O)C1	1 (yes)
CCCCC(=O)O[C@]1(C(=O)CO)[C@@H](C)C[C@H]2[C@@H]3CCC4=CC(=O)C=C[C@]4(C)[C@@]3(F)[C@@H](O)C[C@@]21C	0 (no)
Cc1ncc(-c2ccnc(Nc3ccc(S(C)(=O)=O)cc3)n2)n1C(C)C	1 (yes)
C#C[C@]1(O)CC[C@@H]2[C@@H]3CCC4=CC(=O)CC[C@@H]4[C@H]3CC[C@@]21CC	0 (no)
Cc1ccc(-n2[nH]c(C)c(N=Nc3cccc(-c4cccc(C(=O)O)c4)c3O)c2=O)cc1C	1 (yes)

---

Assay: qHTS of pediatric cancer cell lines to identify multiple opportunities for drug repurposing: Primary screen for MG 63 (6-TG R) cells (AID 1347105); further: nearly all actives have a fitted effect of over 50% in size
Conditions: MG 63 (6-TG R) viability, CellTiter-Glo, 48 h; series mostly up to 46 µM
Experimental: Drug repurposing or repositioning has been offered as a strategy for drug development in oncology programs. This approach has special potential for childhood cancers and other rare or orphan diseases, where the expected return on new drug development has been a disincentive to pharmaceuticals. […] We employed a titration-based paradigm (quantitative high-throughput screening or qHTS), where all compounds were tested at multiple concentrations for their effect on cell viability. […]
Inconclusive results are not listed. Active and inactive are the calls of the source. Calls follow the shape of the dose curve; as a rule, active = well fitted cell-killing curve with a large enough effect; inconclusive = small, poorly fitted or top-dose-only effect; inactive = no such curve, though single readings can be large or run the other way.
Labels: active, inactive

compound	assigned.class
CCN(CC)Cc1ccc2cc(COC(=O)Nc3ccc(C(=O)NO)cc3)ccc2c1	active
C[C@H]1O[C@H](O[C@H]2[C@H](O)[C@@H](O)[C@@H](O[C@H]3[C@H](O)[C@@H](O)C(O)O[C@H]3CO)O[C@H]2CO)[C@H](O)[C@@H](O)[C@H]1N[C@H]1C=C(CO)[C@@H](O)[C@H](O)[C@@H]1O (stereo not given in full)	inactive
COc1cccc2c1C(=O)c1c(O)c3c(c(O)c1C2=O)C[C@@](O)(C(C)=O)C[C@H]3O[C@H]1C[C@H](N)[C@H](O)[C@H](C)O1	active
c1ccc2c(Oc3nc(Nc4ccc(N5CCOCC5)cc4)c4ncn(C5CCCCC5)c4n3)cccc2c1	inactive
C=C1C[C@@]2(O)O[C@@]3(C[C@H]2C(C)C)[C@H](C)CC[C@H]13	inactive
CN(N=O)C(=O)N[C@H]1C(O)OC(CO)[C@@H](O)[C@H]1O (stereo not given in full)	inactive
Cn1cc(CNCC2CCN(c3ncc(C(=O)NO)cn3)CC2)c2ccccc21	active
CC(=CC(=O)Nc1ccccc1C(=O)O)c1ccc2ccccc2c1	inactive
COc1ccc(Nc2cc(-c3cnc(N)nc3)nc(N3CCOCC3)n2)cn1	active
CCC[C@H]1C[C@H](C(=O)N[C@@H]([C@@H]2O[C@@H](SC)[C@@H](O)[C@@H](O)[C@@H]2O)[C@H](C)Cl)N(C)C1	inactive

---

Test: Quantitative High-Throughput drug screen in 47 multiple myeloma cell lines against the NCATS MIPE library collection: FR4_PLB cell viability assay (AID 1918924; further: nearly all actives have a fitted effect of over 35% in size)
Conditions: FR4_PLB myeloma cells viability, CellTiter-Glo ATP, 48 h; series mostly up to 45.8 µM
Inconclusive results are not listed. Calls of active or inactive are those of the source. Calls come from the whole dose curve; as a rule, active = well fitted cell-killing curve with a large enough effect; inconclusive = small, poorly fitted or top-dose-only effect, or effect the other way; inactive = no such curve, though single readings can be large or run the other way.
Labels: active, inactive

molecule	assigned.class
O=C(O)CCCCCC(=O)NN=C1CCCC1	inactive
c1cc(N[C@@H]2CCNC2)nc(-c2cnc3ccc(-c4cn[nH]c4)cn23)c1	active
CCCNC(=O)[C@H]1O[C@H]1C(=O)N[C@H](C(=O)N1CCC[C@@H]1C(=O)OC)C(C)CC (some centres undefined)	active
OCC(O)C(O)C(O)CO (centres undefined)	inactive
N=c1ccn2c(n1)O[C@H]1[C@@H](O)[C@@H](CO)O[C@H]12	inactive
C[C@@H](Oc1ccc2[nH]nc(C=Cc3cnn(CCO)c3)c2c1)c1c(Cl)cncc1Cl	active
O=C(NCc1ccccc1)[C@H](Cc1ccccc1)NC(=O)[C@@H]1O[C@@H]1C(=O)NCCc1ccc(O)cc1	inactive
C[C@]12C=CC(=O)N[C@@H]1CC[C@H]1[C@H]3CC[C@@H](C(=O)Nc4cc(C(F)(F)F)ccc4C(F)(F)F)[C@@]3(C)CC[C@@H]12	active
CCCCCCCCCCCCc1ccc(S(=O)(=O)Nc2nncs2)cc1	inactive

---

Test: qHTS profiling of the MIPE4 collection as inhibitors of Plasmodium falciparum (HB3) proliferation (AID 743347);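 further: plate controls were DMSO vehicle wells for no effect and artemisinin wells for full effect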
Details: P. falciparum HB3 in erythrocytes, SYBR Green DNA, 72 h; at 28.5 µM (top of the series) unless noted
Non-standard residues stand in square brackets, D forms with d. Residues, ends and D or L forms follow the SMILES beside them. *: point of attachment. Nva = CCC[C@H](N)C(=O)O; Cbz = O=C(OCc1ccccc1)*
measured.property: growth, % of control

compound	recorded.result
CCCNS(=O)(=O)Nc1ncnc(OCCOc2ncc(Br)cn2)c1-c1ccc(Br)cc1	88.3%
C[C@H](NCc1ccc(OCc2cccc(F)c2)cc1)C(N)=O	3.17%
O=S(=O)(O)CCSSCCS(=O)(=O)O	76%
Cc1[nH]c(C=C2C(=O)Nc3ccccc32)c(C)c1CCC(=O)O	27.3%
CCC[C@@H](C=O)NC(=O)[C@H](CC(C)C)NC(=O)[C@H](CC(C)C)NC(=O)OCc1ccccc1 (Cbz-Leu-Leu-[Nva]-aldehyde)	3.3%
O=c1c(O)c(-c2ccc(O)c(O)c2)oc2cc(O)ccc12	8.07%
CC(O)(C#Cc1ccc2c(c1)N(c1nc(N)ncc1Cl)CC2)c1nccs1 (configuration not stated)	5.79%
CC(=O)N1CCN(c2ccc(OCc3nn(C)c(C)c3-c3cccc4c(CCCOc5cccc6ccccc56)c(C(=O)O)n(Cc5cccnc5)c34)cc2)CC1	2.86%
C=CC(=O)Nc1ccc2ncnc(Nc3ccc(OCc4cccc(F)c4)c(Cl)c3)c2c1	5.29%
CC(C)Oc1ccc(C(=O)N[C@H](CNC(=O)CN(C)C)Cc2ccc(-c3cn4cccc([C@H](C)O)c4n3)cc2)cc1Cl	5.09%
COc1ccc(CCC(=O)c2c(O)cc(O[C@@H]3O[C@H](CO)[C@@H](O)[C@H](O)[C@@H]3O[C@@H]3O[C@@H](C)[C@H](O)[C@@H](O)[C@@H]3O)cc2O)cc1O	6.55%
CC(C)N1[N]C(=C2C=c3cc(O)ccc3=N2)c2c(N)ncnc21	3.6%

---

Assay: Quantitative High-Throughput drug screen in 47 multiple myeloma cell lines against the NCATS MIPE library collection: OPM2_DSMZ cell viability assay (AID 1919872); further: nearly all actives have a fitted effect of over 30% in size
Conditions: OPM2 myeloma viability, CellTiter-Glo ATP luminescence, 48 h; series mostly up to 45.8 µM
Inconclusive results are not listed. The source made the active and inactive calls. Calls come from the whole dose curve; as a rule, active = well fitted cell-killing curve with a large enough effect; inconclusive = small, poorly fitted or top-dose-only effect, or effect the other way; inactive = no such curve, though single readings can be large or run the other way. Non-standard residues stand in square brackets, D forms with d. Residues, ends and D or L forms follow the SMILES beside them. *: point of attachment. Nva = CCC[C@H](N)C(=O)O; Cbz = O=C(OCc1ccccc1)*
Labels: YES = active, NO = inactive

molecule	assigned.class
O=C(O)[C@H](CC(=O)N1C[C@@H]2CCCC[C@H]2C1)Cc1ccccc1	NO
Cn1cc(C=CC(=O)c2cccc(F)c2)cc1C=CC(=O)NO	YES
C#C[C@]1(O)CC[C@@H]2[C@@H]3CCC4=CC(=O)CC[C@@H]4[C@H]3CC[C@@]21CC	NO
Nc1ccc(C(=O)Nc2cccc(-c3nc(N4CCOCC4)c4oc5ncccc5c4n3)c2)cn1	YES
C[C@H](NC(=O)C(C#N)=Cc1cccc(Br)n1)c1ccccc1	YES
Cn1cc(-c2cnn3c(N)c(Br)c([C@H]4CCCNC4)nc23)cn1	YES
CC(C)N(CC[C@H](c1ccccc1)c1cc(CO)ccc1O)C(C)C	NO
CCOC(=O)[C@H](CCc1ccccc1)N[C@@H](C)C(=O)N1[C@@H](C(=O)O)C[C@H]2CCC[C@@H]21	YES
Cc1cncc2cccc(S(=O)(=O)N3CCCN(C(=O)CN)C[C@@H]3C)c12	NO
NS(=O)(=O)OC[C@@H]1C[C@@H](n2ccc3c(N[C@H]4CCc5ccccc54)ncnc32)C[C@H]1O	NO
CCCCC(=O)O[C@]1(C(=O)CO)[C@@H](C)C[C@H]2[C@@H]3CCC4=CC(=O)C=C[C@]4(C)[C@@]3(F)[C@@H](O)C[C@@]21C	NO
CCC[C@@H](C=O)NC(=O)[C@H](CC(C)C)NC(=O)[C@H](CC(C)C)NC(=O)OCc1ccccc1 (Cbz-Leu-Leu-[Nva]-aldehyde)	YES

Measured values drawn from PubChem BioAssay (NCATS) for this set.
